- Target Or System: T1, huFXII-his (human, UniProt P00748 20-615)
- T1 sequence (looked up): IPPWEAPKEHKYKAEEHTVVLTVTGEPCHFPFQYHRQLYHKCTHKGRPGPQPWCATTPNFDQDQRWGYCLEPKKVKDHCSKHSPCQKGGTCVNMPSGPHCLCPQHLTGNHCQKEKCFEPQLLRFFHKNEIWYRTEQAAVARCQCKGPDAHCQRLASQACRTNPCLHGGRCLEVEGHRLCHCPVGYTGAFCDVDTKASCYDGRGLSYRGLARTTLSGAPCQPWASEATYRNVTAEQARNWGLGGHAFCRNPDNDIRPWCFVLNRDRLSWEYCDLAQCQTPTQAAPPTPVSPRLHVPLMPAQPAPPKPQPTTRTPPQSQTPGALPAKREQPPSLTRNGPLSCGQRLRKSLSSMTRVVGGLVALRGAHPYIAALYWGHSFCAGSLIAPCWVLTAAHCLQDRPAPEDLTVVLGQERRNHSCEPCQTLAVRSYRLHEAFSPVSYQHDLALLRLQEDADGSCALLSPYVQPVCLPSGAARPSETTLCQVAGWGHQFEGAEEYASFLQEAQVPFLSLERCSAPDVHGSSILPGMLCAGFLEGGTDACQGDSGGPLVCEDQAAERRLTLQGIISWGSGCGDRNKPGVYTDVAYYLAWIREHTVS
- Assay Text: cell-based or functional assay
Listing: IC50 of inhibition of cleavage of chemical substrate S2302 by FXIIa (OD405) of selected binders
Unit µg/mL implied. Number only.

Some solved cases for reference:
- Binder: "FX-Y17-Y43 (antibody, V domains shown) VH: EVQLLESGGGLVQPGGSLRLSCAGSGFSFGSQTMSWVRQAPGKGLEWVSSSSVISGRTYYADSVKGRFTISRDNSKNTLYLQMNSLRAEDTAVYYCTRSHAFDVWGQGTMVTVSS VL: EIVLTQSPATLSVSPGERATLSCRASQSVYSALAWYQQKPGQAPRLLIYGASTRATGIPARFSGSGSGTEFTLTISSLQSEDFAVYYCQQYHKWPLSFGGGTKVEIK"
  Reported Measurement: 0.0146
- Binder: "FX-Y17-Y50 (antibody, V domains shown) VH: EVQLLESGGGLVQPGGSLRLSCAGSGFSFGSQTMSWVRQAPGKGLEWVSSISVISGRRYYADSVKGRFTISRDNSKNTLYLQMNSLRAEDTAVYYCTKSHAFDVWGQGTMVTVSS VL: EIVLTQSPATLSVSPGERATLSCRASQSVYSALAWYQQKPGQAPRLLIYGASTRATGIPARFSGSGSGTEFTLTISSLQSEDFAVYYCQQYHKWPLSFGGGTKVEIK"
  Reported Measurement: 0.0225

Now let's try a different one.
Q) Quick one: IC50 of inhibition of cleavage of chemical substrate S2302 by FXIIa (OD405) of FX-Y17-Y41 (antibody, V domains shown) VH: EVQLLESGGGLVQPGGSLRLSCAGSGFSFGSQTMSWVRQAPGKGLEWVSSISVISGRRYYADSVKGRFTISRDNSKNTLYLQMNSLRAEDTAVYYCAKSHAFDVWGQGTMVTVSS VL: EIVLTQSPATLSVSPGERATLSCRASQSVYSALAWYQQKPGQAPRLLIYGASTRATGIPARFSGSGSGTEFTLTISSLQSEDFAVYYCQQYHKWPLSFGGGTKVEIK ?
A) 0.019
